- testTarget: Mu (μ) opioid receptor (Homo sapiens)
- Sequence (P35372 whole entry): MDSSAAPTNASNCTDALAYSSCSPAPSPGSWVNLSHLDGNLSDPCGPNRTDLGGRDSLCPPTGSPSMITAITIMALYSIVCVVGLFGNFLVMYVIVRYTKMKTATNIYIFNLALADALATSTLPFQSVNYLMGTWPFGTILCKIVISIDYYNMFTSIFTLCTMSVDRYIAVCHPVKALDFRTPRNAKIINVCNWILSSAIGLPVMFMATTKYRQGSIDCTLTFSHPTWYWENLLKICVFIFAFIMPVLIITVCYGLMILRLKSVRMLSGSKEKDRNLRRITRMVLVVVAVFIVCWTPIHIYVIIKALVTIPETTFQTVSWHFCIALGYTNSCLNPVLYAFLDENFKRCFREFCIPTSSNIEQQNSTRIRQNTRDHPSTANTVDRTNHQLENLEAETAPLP
- testDescription: Filtration binding assay, mu opioid receptor (Damgo-H3 ligand)
- testSettings: 1 D4 cell line membrane, Damgo-H3 ligand; calculated mean where tested more than once; read-out: Mu (μ) IC50
measuredProperty: pIC50
The scale used: pIC50 is minus the common logarithm of the concentration in molar units.

Input line: Quick one: pIC50 for "CN1C(=O)C2(CCN(CC3CCCCCCC3)CC2)c2cc(F)ccc21" ?
Output line: 6.00

Input line: And for "Cc1cccc2c1C1(CCN(CC3CCCCCCC3)CC1)C(=O)N2C" ?
Output line: 6.32

Input line: And for "Cc1ccc2c(c1)C1(CCN(CC3CCCCCCC3)CC1)C(=O)N2C" ?
Output line: 5.37

Input line: And for "COC(=O)CN1C(=O)C2(CCN(CC3CCCCCCC3)CC2)c2ccccc21" ?
Output line: 5.45

Input line: And for CCN(Cc1ccc(C)cc1)CC(O)CN1C(=O)C2(CCN(CC3CCCCCCC3)CC2)c2ccccc21 (stereo not drawn) ?
Output line: 6.21

Input line: And for "O=C1N(CCO)c2ccccc2C12CCN(CC1CCCCCCC1)CC2" ?
Output line: 5.77

Input line: And for "CN1C(=O)C2(CCN(CC3CCCCCCC3)CC2)c2ccccc21" ?
Output line: 5.89

Input line: And for "O=C1Nc2ccccc2C12CCN(CC1CCCCCCC1)CC2" ?
Output line: 5.95

Input line: And for O=C1N(CC2CO2)c2ccccc2C12CCN(CC1CCCCCCC1)CC2 (stereo not drawn) ?
Output line: 6.08

Input line: And for "CN1C(=O)C2(CCN(CC3CCCCCCC3)CC2)c2cc(C(F)(F)F)ccc21" ?
Output line: 5.27

----------
- testTarget: Delta (δ) opioid receptor (Homo sapiens)
- testDescription: Filtration binding assay, delta opioid receptor (DPDPE-H3 ligand)
- testSettings: 2D4 cell line membrane, DPDPE-H3 ligand; calculated mean where tested more than once; read-out: Delta (δ) IC50
measuredProperty: IC50

Input line: Quick one: IC50 for "Cc1ccc2c(c1)C1(CCN(CC3CCCCCCC3)CC1)C(=O)N2C" ?
Output line: > 10 µM

Input line: And for "CCN1CC2(CCN(CC3CCCCCCC3)CC2)c2ccc(OC)cc21" ?
Output line: > 10 µM

Input line: And for CC(=O)N[C@@H](CSCC(O)CN1C(=O)C2(CCN(CC3CCCCCCC3)CC2)c2ccccc21)C(=O)O (some centres unmarked) ?
Output line: > 10 µM

Input line: And for "CCCN1C(=O)C2(CCN(CC3CCCCCCC3)CC2)c2cc(C(C)C)ccc21" ?
Output line: 5.7 µM

Input line: And for "Cc1ccc2c(c1)N(C)C(=O)C21CCN(CC2CCCCCCC2)CC1" ?
Output line: 8.8 µM

Input line: And for O=C1N(CC2CCCCC2)c2ccccc2C12CCN(C1Cc3cccc4cccc1c34)CC2 (centres unmarked) ?
Output line: > 10 µM

Input line: And for COC(=O)CN1C(=O)C2(CCN(C3Cc4cccc5cccc3c45)CC2)c2ccccc21 (centres unmarked) ?
Output line: > 10 µM

Input line: And for "CN1C(=O)C2(CCN(CC3CCCCCCC3)CC2)c2ccc(O)cc21" ?
Output line: 0.3 µM

----------
Please provide measured % Inhibition (100 nM Nociceptin) for the entries that follow.
- testTarget: ORL-1 receptor (Homo sapiens, UniProt P41146)
- Construct: expressed in transfected cells; host or cells: HEK-293 over-expressing ORL-1 and Gqi5
- Sequence (P41146 whole entry): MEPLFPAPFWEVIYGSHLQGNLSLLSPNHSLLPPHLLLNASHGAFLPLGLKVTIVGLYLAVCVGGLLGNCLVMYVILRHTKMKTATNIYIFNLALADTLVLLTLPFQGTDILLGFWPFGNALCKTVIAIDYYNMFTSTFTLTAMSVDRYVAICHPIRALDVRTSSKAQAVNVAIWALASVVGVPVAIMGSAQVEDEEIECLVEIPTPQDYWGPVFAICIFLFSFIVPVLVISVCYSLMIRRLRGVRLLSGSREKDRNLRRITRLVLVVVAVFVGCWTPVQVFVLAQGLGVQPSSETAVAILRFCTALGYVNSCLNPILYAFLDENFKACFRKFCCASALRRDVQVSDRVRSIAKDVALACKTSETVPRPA
- testDescription: ORL-1 functional assay (calcium flux, FLIPR)
- Assay type: cell-based
- testSettings: inhibition of calcium signal from 100 nM nociceptin, HEK-293 cells with ORL-1 and Gqi5
Entry rule: numbers only, all in %.

Input line: Quick one: % Inhibition (100 nM Nociceptin) for Cc1ccc2c(c1)N(C)C(=O)C21CCN(CC2CCCCCCC2)CC1 [Compound 58] ?
Output line: 48

Input line: And for O=C1Nc2ccccc2C12CCN(CC1CCCCCCC1)CC2 [Compound 18] ?
Output line: 45

Input line: And for Cc1cccc2c1C1(CCN(CC3CCCCCCC3)CC1)C(=O)N2C [Compound 59] ?
Output line: 81

Input line: And for O=C1N(CC2CO2)c2ccccc2C12CCN(CC1CCCCCCC1)CC2 (stereo not drawn) [Compound 60] ?
Output line: 17

Input line: And for CN1C(=O)C2(CCN(CC3CCCCCCC3)CC2)c2cc(F)ccc21 [Compound 9] ?
Output line: 41

Input line: And for COC(=O)CN1C(=O)C2(CCN(CC3CCCCC3)CC2)c2ccccc21 [Compound 24] ?
Output line: 32

----------
- testTarget: Kappa (κ) opioid receptor (Homo sapiens)
- Sequence (P41145 whole entry): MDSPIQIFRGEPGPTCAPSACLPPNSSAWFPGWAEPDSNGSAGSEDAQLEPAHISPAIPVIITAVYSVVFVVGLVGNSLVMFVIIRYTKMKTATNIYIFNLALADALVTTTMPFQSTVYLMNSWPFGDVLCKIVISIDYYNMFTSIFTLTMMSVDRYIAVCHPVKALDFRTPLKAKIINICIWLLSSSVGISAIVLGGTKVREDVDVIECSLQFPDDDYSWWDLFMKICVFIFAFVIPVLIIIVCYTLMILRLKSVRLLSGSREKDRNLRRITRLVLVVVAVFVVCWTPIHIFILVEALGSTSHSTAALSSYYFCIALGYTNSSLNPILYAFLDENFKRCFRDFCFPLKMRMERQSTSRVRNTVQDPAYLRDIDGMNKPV
- testDescription: Filtration binding assay, kappa opioid receptor (U69593-H3 ligand)
- testSettings: 2C2 cell line membrane, U69593-H3 ligand; calculated mean where tested more than once; read-out: Kappa (κ) IC50
measuredProperty: pIC50
The scale used: pIC50 is minus the common logarithm of the concentration in molar units.

Input line: Quick one: pIC50 for CN1C(=O)C2(CCN(CC3CCCCCCC3)CC2)c2ccccc21 [Compound 45] ?
Output line: 6.03

Input line: And for Cc1cccc2c1C1(CCN(CC3CCCCCCC3)CC1)C(=O)N2C [Compound 59] ?
Output line: 6.25

Input line: And for COc1ccc2c(c1)N(C)C(=O)C21CCN(CC2CCCCCCC2)CC1 [Compound 35] ?
Output line: 5.91

Input line: And for CC(=O)N[C@@H](CSCC(O)CN1C(=O)C2(CCN(CC3CCCCCCC3)CC2)c2ccccc21)C(=O)O (some centres unmarked) [Compound 16] ?
Output line: 6.44

Input line: And for CN1C(=O)C2(CCN(CC3CCCCCCC3)CC2)c2cc(F)ccc21 [Compound 9] ?
Output line: 6.60

Input line: And for COC(=O)CN1C(=O)C2(CCN(C3Cc4cccc5cccc3c45)CC2)c2ccccc21 (centres unmarked) [Compound 30] ?
Output line: 5.36

Input line: And for CCCN1C(=O)C2(CCN(CC3CCCCCCC3)CC2)c2cc(C(C)C)ccc21 [Compound 17] ?
Output line: 5.40

Input line: And for O=C1Nc2ccccc2C12CCN(CC1CCCCCCC1)CC2 [Compound 18] ?
Output line: 6.37

Input line: And for Cc1ccc2c(c1)N(C)C(=O)C21CCN(CC2CCCCCCC2)CC1 [Compound 58] ?
Output line: 5.62

Input line: And for CC(=O)OCCN1C(=O)C2(CCN(CC3CCCCCCC3)CC2)c2ccccc21 [Compound 46] ?
Output line: 5.58

Input line: And for O=C1N(CC2CO2)c2ccccc2C12CCN(CC1CCCCCCC1)CC2 (centres unmarked) [Compound 60] ?
Output line: 6.32

Input line: And for CCN(Cc1ccc(C)cc1)CC(O)CN1C(=O)C2(CCN(CC3CCCCCCC3)CC2)c2ccccc21 (centres unmarked) [Compound 62] ?
Output line: 6.66

Input line: And for COC(=O)CN1C(=O)C2(CCN(CC3CCCCCCC3)CC2)c2ccccc21 [Compound 42] ?
Output line: 6.19

Input line: And for Cc1ccc2c(c1)C1(CCN(CC3CCCCCCC3)CC1)C(=O)N2C [Compound 57] ?
Output line: 6.27

Input line: And for CN1C(=O)C2(CCN(CC3CCCCCCC3)CC2)c2ccc(O)cc21 [Compound 19] ?
Output line: 6.92

Input line: And for O=C1N(Cc2ccccc2)c2ccccc2C12CCN(CC1CCCCCCC1)CC2 [Compound 44] ?
Output line: 5.96

----------
Please provide measured IC50 for the entries that follow.
- testTarget: Delta (δ) opioid receptor (Homo sapiens, UniProt P41143)
- Sequence (P41143 whole entry): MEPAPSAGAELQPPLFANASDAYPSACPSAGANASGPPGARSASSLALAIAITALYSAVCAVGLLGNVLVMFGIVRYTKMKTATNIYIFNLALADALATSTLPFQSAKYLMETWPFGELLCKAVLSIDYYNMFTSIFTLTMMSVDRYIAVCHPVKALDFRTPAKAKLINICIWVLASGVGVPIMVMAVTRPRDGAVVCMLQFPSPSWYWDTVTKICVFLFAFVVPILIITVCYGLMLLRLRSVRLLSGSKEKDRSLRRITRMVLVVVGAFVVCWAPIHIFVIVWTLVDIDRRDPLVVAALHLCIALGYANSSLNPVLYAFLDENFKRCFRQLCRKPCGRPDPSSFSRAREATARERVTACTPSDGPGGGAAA
- testDescription: Filtration binding assay, delta opioid receptor (DPDPE-H3 ligand)

Input line: Quick one: IC50 for "O=C(O)CN1C(=O)C2(CCN(CC3CCCCCCC3)CC2)c2ccccc21" ?
Output line: > 10 µM

Input line: And for "CN1C(=O)C2(CCN(CC3CCCCCCC3)CC2)c2cc(C(F)(F)F)ccc21" ?
Output line: > 10 µM

Input line: And for "CN1C(=O)C2(CCN(CC3CCCCCCC3)CC2)c2cc(F)ccc21" ?
Output line: > 10 µM

----------
The compounds below have reported IC50 for human nociceptin receptor (ORL-1) (Homo sapiens, UniProt P41146).
Entry rule: numbers only, all in µM.

Input line: Quick one: IC50 for COC(=O)CN1C(=O)C2(CCN(Cc3cccc4ccccc34)CC2)c2ccccc21 [Compound 43] ?
Output line: 0.47

Input line: And for O=C1N(CCO)c2ccccc2C12CCN(CC1CCCCCCC1)CC2 [Compound 20] ?
Output line: 0.29

Input line: And for COC(=O)CN1C(=O)C2(CCN(CC3CCCCCCCCCCC3)CC2)c2ccccc21 [Compound 27] ?
Output line: 1.12

Input line: And for COC(=O)CN1C(=O)C2(CCN(CC3CC3)CC2)c2ccccc21 [Compound 23] ?
Output line: 3.6

Origin of values: patent US7655670B2
